Molecular target: CYP3A4 (Homo sapiens, UniProt P08684)
Construct: pre-incubated with human liver microsomes and NADPH; from tissue; host or cells: human liver microsomes
Sequence (P08684 whole entry): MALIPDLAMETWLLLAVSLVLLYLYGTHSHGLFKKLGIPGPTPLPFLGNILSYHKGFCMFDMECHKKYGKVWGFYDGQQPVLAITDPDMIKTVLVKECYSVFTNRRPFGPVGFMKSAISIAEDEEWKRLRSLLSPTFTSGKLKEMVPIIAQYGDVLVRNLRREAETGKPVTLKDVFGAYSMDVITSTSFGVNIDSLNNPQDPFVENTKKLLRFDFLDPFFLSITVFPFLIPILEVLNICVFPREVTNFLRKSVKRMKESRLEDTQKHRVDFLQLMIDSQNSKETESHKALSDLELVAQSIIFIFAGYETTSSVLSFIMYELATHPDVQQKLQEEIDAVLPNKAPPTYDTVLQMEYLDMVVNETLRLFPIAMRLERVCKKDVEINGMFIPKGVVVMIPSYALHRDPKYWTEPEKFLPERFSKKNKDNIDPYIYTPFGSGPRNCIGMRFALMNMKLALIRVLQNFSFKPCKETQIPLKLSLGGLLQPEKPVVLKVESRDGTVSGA
Assay: Cytochrome P450 inhibition assay (midazolam hydroxylation)
Type: in vitro ADME
Details: human, human liver microsomes, probe midazolam (hydroxylation to 1′-hydroxymidazolam), 10 μM test compound, midazolam at approximately its Km
endpointName: inhibition at 10 µM (%)

Here is how some molecules turned out for inhibition at 10 µM.
# molecule, inhibition at 10 µM, %
records = [
    ("C[C@@H]1CCCN(C(=O)c2ccccc2-n2nccn2)[C@@H]1CNc1ncc(C(F)(F)F)cn1 [Example A313]", 60),
    ("Cc1cccc(C(=O)N2CCC[C@@H](C)[C@H]2CNc2ccc(C(F)(F)F)cn2)c1-n1nccn1 [Example A266]", 76),
    ("Cc1ccc(-n2nccn2)c(C(=O)N2CCC[C@@H](C)[C@H]2CNc2nccc(C(F)(F)F)n2)c1 [Example A163]", 90),
]

[P] Cc1ccc(-c2ncccn2)c(C(=O)N2CCC[C@@H](C)[C@H]2CNc2ccc(C#N)cn2)c1 [Example A139]
[Q] Cc1ccc(F)c(C(=O)N2CCC[C@@H](C)[C@H]2CNc2ncc(C(F)(F)F)cn2)c1-c1ncccn1 [Example A355]
[R] C[C@@H]1CCCN(C(=O)c2c(F)cccc2-n2nccn2)[C@@H]1CNc1ccc(C(F)(F)F)cn1 [Example A258]
// ascending sort on recorded inhibition at 10 µM When ranking, write the labels in the order the request describes.
Q, P, R
(Q: 25%, P: 41%, R: 69%)

---

Target: CYP3A4 (Homo sapiens, UniProt P08684)
Construct: pre-incubated with human liver microsomes and NADPH; from tissue; host or cells: human liver microsomes
Assay: Cytochrome P450 inhibition assay (midazolam hydroxylation)
Assay type: in vitro ADME
Settings: human, human liver microsomes, probe midazolam (hydroxylation to 1′-hydroxymidazolam), 10 μM test compound, midazolam at approximately its Km
endpointName: inhibition at 10 µM (%)

[P] Cc1ccc(-n2nccn2)c(C(=O)N2CCC[C@@H](C)[C@H]2CNc2ncccc2C(F)(F)F)c1 [Example A88]
[Q] Cc1ccc(-n2nccn2)c(C(=O)N2CCC[C@@H](C)[C@H]2CNc2nnc(C(F)(F)F)s2)c1 [Example A102]
Quick one: lower inhibition at 10 µM, P or Q ? Answer with the label corresponding to your selection.
Q
(Q: 48%, P: 75%)

---

Molecular target: CYP3A4 (Homo sapiens)
Construct: pre-incubated with human liver microsomes and NADPH; from tissue; host or cells: human liver microsomes
Test: Cytochrome P450 inhibition assay (midazolam hydroxylation)
Type: in vitro ADME
Conditions: human, human liver microsomes, probe midazolam (hydroxylation to 1′-hydroxymidazolam), 10 μM test compound, midazolam at approximately its Km
endpointName: inhibition at 10 µM (%)

Example cases with answers are listed next.
# compound, unitSymbol, resultValue
data = [
    ("C[C@@H]1CCCN(C(=O)c2cc(Cl)ccc2-n2nccn2)[C@@H]1CNc1ncc(C(F)(F)F)cn1 [Example A160]", "%", 59),
    ("Cc1ccc(-c2ccccn2)c(C(=O)N2CCC[C@@H](C)[C@H]2CNc2nc3cc(Cl)ccc3o2)c1 [Example A32]", "%", 92),
    ("Cc1ccc(-n2nccn2)c(C(=O)N2CCC[C@@H](C)[C@H]2CNc2ncc(Cl)cc2F)n1 [Example A192]", "%", 51),
]

[P] Cc1c(F)ccc(C(=O)N2CCC[C@@H](C)[C@H]2CNc2ccc(C(F)(F)F)cn2)c1-n1nccn1 [Example A344]
[Q] Cc1ccc(-c2ncccn2)c(C(=O)N2CCC[C@@H](C)[C@H]2CNc2ncc(C(F)(F)F)cn2)c1 [Example A212]
I'm curious, which of these has a smaller inhibition at 10 µM number: P or Q ? Refer to your chosen item by its label in the answer.
Q
(Q: 49%, P: 75%)

[P] Cc1ccc(-n2nccn2)c(C(=O)N2CCC[C@@H](C)[C@H]2CNc2ncc(C#N)cc2F)c1 [Example A148]
[Q] C[C@@H]1CCCN(C(=O)c2c(F)ccc(F)c2-c2ncccn2)[C@@H]1CNc1ncc(C(F)(F)F)cn1 [Example A335]
When their inhibition at 10 µM values are compared, which is larger, P or Q ? Write the label of whichever entry you select.
P

[1] Cc1ccc(-n2nccn2)c(C(=O)N2CCC(F)(F)C[C@H]2CNc2ncc(C(F)(F)F)cn2)c1 [Example A211]
[2] Cc1ccc(-c2ccnn2C)c(C(=O)N2CCC[C@@H](C)[C@H]2CNc2nc3cc(Cl)ccc3o2)c1 [Example A36]
1 or 2 : whose inhibition at 10 µM is greater? Lab log: write the label of the selected item as the result.
2
